Molecular target: Voltage-dependent T-type calcium channel subunit alpha-1H (Homo sapiens, UniProt O95180)
Sequence (O95180 whole entry): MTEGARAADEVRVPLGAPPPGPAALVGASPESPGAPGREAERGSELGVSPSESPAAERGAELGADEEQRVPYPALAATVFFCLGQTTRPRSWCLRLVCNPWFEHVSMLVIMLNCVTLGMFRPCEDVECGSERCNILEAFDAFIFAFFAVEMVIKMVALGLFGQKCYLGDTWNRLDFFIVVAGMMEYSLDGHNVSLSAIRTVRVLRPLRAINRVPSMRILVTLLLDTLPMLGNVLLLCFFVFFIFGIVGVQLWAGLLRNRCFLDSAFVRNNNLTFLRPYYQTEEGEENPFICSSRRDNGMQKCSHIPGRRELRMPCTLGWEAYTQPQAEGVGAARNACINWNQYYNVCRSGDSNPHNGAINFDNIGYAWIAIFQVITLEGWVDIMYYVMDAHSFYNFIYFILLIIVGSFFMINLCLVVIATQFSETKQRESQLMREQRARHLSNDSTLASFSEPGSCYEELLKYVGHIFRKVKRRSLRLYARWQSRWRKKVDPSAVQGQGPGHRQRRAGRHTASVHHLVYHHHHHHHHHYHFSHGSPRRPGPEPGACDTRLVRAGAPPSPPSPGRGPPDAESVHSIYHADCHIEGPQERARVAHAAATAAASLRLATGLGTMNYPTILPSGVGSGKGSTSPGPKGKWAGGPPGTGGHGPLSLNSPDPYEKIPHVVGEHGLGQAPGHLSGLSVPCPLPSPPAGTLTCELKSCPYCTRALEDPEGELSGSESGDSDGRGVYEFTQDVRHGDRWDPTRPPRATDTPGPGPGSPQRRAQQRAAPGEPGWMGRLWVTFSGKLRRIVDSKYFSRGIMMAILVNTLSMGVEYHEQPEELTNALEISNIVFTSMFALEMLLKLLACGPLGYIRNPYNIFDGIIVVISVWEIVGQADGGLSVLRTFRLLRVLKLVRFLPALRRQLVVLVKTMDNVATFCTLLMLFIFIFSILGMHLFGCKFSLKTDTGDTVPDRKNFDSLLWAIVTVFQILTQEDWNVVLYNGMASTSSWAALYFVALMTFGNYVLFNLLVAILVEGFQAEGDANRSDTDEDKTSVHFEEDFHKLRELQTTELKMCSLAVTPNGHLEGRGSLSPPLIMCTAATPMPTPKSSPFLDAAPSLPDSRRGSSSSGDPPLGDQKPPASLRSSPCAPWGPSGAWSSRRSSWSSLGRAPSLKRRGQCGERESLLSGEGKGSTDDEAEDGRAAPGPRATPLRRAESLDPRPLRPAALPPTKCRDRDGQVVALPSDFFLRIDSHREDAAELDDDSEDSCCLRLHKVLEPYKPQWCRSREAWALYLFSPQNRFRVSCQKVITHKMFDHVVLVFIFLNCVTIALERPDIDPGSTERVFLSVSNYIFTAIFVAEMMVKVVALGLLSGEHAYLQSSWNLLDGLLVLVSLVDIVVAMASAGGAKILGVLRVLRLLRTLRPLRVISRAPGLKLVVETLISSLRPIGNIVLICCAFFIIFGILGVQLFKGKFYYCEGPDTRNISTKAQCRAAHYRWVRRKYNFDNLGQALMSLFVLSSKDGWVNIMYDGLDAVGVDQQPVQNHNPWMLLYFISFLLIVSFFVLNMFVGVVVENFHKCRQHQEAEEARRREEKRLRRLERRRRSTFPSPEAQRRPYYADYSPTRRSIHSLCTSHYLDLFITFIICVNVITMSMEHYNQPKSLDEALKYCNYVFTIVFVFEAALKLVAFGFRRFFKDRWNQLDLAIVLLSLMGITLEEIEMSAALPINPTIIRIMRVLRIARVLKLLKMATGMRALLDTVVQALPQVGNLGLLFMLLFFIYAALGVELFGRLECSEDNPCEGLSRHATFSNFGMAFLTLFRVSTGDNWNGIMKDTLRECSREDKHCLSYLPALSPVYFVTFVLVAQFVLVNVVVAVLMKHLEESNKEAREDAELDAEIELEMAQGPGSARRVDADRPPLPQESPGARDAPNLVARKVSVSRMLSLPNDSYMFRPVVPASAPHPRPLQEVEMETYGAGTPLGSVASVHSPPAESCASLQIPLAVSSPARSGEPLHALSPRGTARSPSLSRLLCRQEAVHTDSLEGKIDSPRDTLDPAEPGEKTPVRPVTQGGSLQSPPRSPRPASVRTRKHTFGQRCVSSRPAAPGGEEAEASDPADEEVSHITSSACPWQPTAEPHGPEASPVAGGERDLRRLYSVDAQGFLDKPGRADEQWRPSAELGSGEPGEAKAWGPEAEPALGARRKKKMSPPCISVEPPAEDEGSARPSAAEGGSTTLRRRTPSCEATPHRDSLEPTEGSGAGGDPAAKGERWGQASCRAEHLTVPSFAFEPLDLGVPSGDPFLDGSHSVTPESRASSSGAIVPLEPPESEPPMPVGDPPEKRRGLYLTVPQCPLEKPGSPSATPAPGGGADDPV
Experiment: Channel blocking activity at recombinant human CaV 3.2 channel expressed in HEK293 cells assessed as inhibition of Ca2+ flux preincubated for 3 mins followed by CaCl2 addition by fluo-4 dye-based FLIPR assay
Observable: log10 IC50 (log10 of the value in nM)
// do not treat as linear: log10 of IC50, unit nM

Use these answered entries as a reference point.
C[C@@H]1CN(Cc2ccccc2)c2cnccc2[C@H](C)N1C(=O)CCc1ccc(F)cc1 (racemic) ... 2.35
C[C@@H]1CN(Cc2ccccc2)c2ccccc2[C@H](C)N1C(=O)OCc1ccccc1 (racemic) ... 2.92
C[C@@H]1c2ccccc2N(Cc2ccccc2)C[C@H](C)N1C(=O)NCc1ccccc1 ... 2.55
CC(C)CCN1C[C@@H](C)N(C(=O)Nc2cccnc2)[C@@H](C)c2ccncc21 (racemic) ... 2.78
C[C@@H]1CN(S(=O)(=O)c2ccccc2)c2ccccc2[C@H](C)N1C(=O)Nc1cccnc1 (racemic) ... 3.67

Hi! Can you tell me log10 IC50 for each of these compounds?
1. Cc1ccc2c(c1)N(Cc1ccccc1)C[C@@H](C)N(C(=O)Nc1cccnc1)[C@H]2C (racemic)
2. C[C@@H]1CN(Cc2ccccc2)c2nc(C(F)(F)F)ccc2[C@H](C)N1C(=O)NCc1ccccc1 (racemic)
3. C[C@@H]1CN(Cc2cnc(C(F)(F)F)s2)c2ccccc2[C@H](C)N1C(=O)Nc1cccnc1 (racemic)
4. C[C@@H]1CN(Cc2ccccc2)c2ncc(Cl)cc2[C@H](C)N1C(=O)NCc1ccccc1 (racemic)
5. C[C@@H]1CN(Cc2cccnc2)c2ccccc2[C@H](C)N1C(=O)NCc1ccccc1 (racemic)
6. C[C@@H]1CN(Cc2ccccc2)c2ncccc2[C@H](C)N1C(=O)NCc1ccccc1 (racemic)

[2.36, 2.02, 1.62, 1.83, 2.70, 1.49]

Hi! Can you tell me log10 IC50 for each of these compounds?
1. CCN1C[C@@H](C)N(C(=O)NCc2ccccc2)[C@@H](C)c2ccccc21 (racemic)
2. C[C@@H]1CN(CC2CCCC2)c2ccccc2[C@H](C)N1C(=O)Nc1cccnc1 (racemic)
3. COc1ccc(CNC(=O)N2[C@H](C)CN(Cc3ccccc3)c3ccccc3[C@@H]2C)cc1 (racemic)
4. C[C@@H]1CN(Cc2ccccc2)c2ccccc2[C@H](C)N1S(=O)(=O)c1cn(C)cn1 (racemic)
5. C[C@@H]1CN(Cc2ccccc2F)c2cnccc2[C@H](C)N1C(=O)NCc1ccccc1 (racemic)
6. Cc1ccc2c(n1)N(Cc1ccccc1)C[C@@H](C)N(C(=O)NCc1ccccc1)[C@H]2C (racemic)
7. C[C@@H]1CN(Cc2cccc(F)c2)c2ccccc2[C@H](C)N1C(=O)Nc1cccnc1 (racemic)

2.96
1.79
1.15
3.17
1.98
1.45
1.15

Hi! Can you tell me log10 IC50 for each of these compounds?
1. C[C@@H]1CN(Cc2ccccc2)c2ccccc2[C@H](C)N1C(=O)N(C)Cc1ccccc1 (racemic)
2. COc1ccc(CNC(=O)N2[C@H](C)CN(Cc3ccccc3)c3cnccc3[C@@H]2C)cc1 (racemic)
3. C[C@@H]1CN(Cc2ccccc2)c2cnc(Cl)cc2[C@H](C)N1C(=O)NCc1ccccc1 (racemic)
4. COc1ccc2c(c1)N(Cc1ccccc1)C[C@@H](C)N(C(=O)Nc1cccnc1)[C@H]2C (racemic)

2.92
1.68
2.35
3.20
